// provenance: PubChem BioAssay AID1159580

Assay: chemical genetic growth profiling, strain panel (AID 1159580);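 also: tested at 20 µM; growth read once vehicle control cultures reached saturation at 30 °C; 1 = growth at the plate median or of vehicle wells; lower values mean less growth of the strain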
Settings: S. cerevisiae deletion strains, growth OD, locus YKL085W, strain MDH1, hits give low values
In all, about 5,500 compounds went through this assay and about 2,000 (36%) were called active. Roughly 18% stayed inconclusive and do not appear here. The list shows a part of the results.
Examples of compounds with documented normalized growth follow.

Compound: CC(C)Cn1c(=O)n(C)c(=O)c2[nH]cnc21
normalized growth: 0.983 (inactive)

Compound: CC(=O)OC1CCC23CC1(C)CCC2C(C)(C)CC3OC(C)=O (centres undefined)
normalized growth: 0.967 (inactive)

Compound: CC(=O)OC1CCC2(O)CC1(C)CCC1C2CC1(C)C (centres undefined)
normalized growth: 0.979 (inactive)

Compound: CN(C)CCC[C@@]1(c2ccc(F)cc2)OCc2cc(C#N)ccc21
normalized growth: 0.999 (inactive)

Compound: COC(=O)CC1C(C)(C)C(=O)C2CC3(O)C4=CC(=O)OC(c5ccoc5)C4(C)CCC3C1(C)C2=O (centres undefined)
normalized growth: 0.991 (inactive)

Compound: C[C@]12[C@H](O)CC3C(CC[C@@H]4C[C@@H](O)CC[C@]34C)[C@@]1(O)CC[C@@H]2C1=CC(=O)OC1 (some centres undefined)
normalized growth: 0.975 (inactive)

Compound: O=c1c(O)cccc2cc(O)c(O)c(O)c12
normalized growth: 0.818 (active)

Compound: CC(=O)O[C@@H]1C2CC[C@@H]3C1(C[C@@H](O)[C@@]1(O)[C@@H](C[C@H](O)C1(C)C)[C@]3(C)O)C[C@@]2(C)O (some centres undefined)
normalized growth: 0.999 (inactive)

Compound: CC1=C(C(=O)O)N2C(=O)[C@@H](NC(=O)[C@@H](N)c3ccc(O)cc3)[C@H]2SC1
normalized growth: 0.991 (inactive)

* * *

Experiment: chemical genetic growth profiling, strain panel (AID 1159580)
Details: S. cerevisiae deletion strains, growth OD, locus YCR088W, strain abp1, hits give low values
The whole screen tested about 5,500 compounds, of which about 2,000 (36%) were called active. Roughly 18% stayed inconclusive and do not appear here. Some of the results follow.

Molecule: Cn1c(=O)[nH]c2nc[nH]c2c1=O
normalized growth: 1.01
//
Molecule: O=C(O)[C@H]1/C(=C/CO)O[C@@H]2CC(=O)N21
normalized growth: 0.986
//
Molecule: O=C(CCc1ccc(O)cc1)c1c(O)cc(O)cc1O
normalized growth: 1.02
//
Molecule: COc1cc(O)c2c(c1)C(=O)c1cc(C)cc(O)c1C2=O
normalized growth: 0.993
//
Molecule: COc1cc(Cc2cnc(N)nc2N)cc(OC)c1OC
normalized growth: 1.02
//
Molecule: CC(=O)CCCCn1c(=O)c2c(ncn2C)n(C)c1=O
normalized growth: 1.01
//
Molecule: O=C(O)C1=C(CSc2nnnn2CS(=O)(=O)O)CS[C@@H]2C(NC(=O)[C@H](O)c3ccccc3)C(=O)N12 (some centres not stated)
normalized growth: 0.968
//
Molecule: COc1cc(O)ccc1C(C)=O
normalized growth: 1.02
//
Molecule: COc1ccc([C@@H](C)C(=O)c2ccc(O)cc2O)cc1
normalized growth: 0.967
//
Molecule: CN1CCN(C2=Nc3cc(Cl)ccc3Nc3ccccc32)CC1
normalized growth: 0.985
//
Molecule: Cn1c(=O)c2c(ncn2CCO)n(C)c1=O
normalized growth: 1.02
//
Molecule: O=C1C=CC(=O)c2c(O)cccc21
normalized growth: 0.981

* * *

Assay: chemical genetic growth profiling, strain panel (AID 1159580)
Conditions: S. cerevisiae deletion strains, growth OD, locus YOR144C, strain elg1
Hit rate of the full screen: of about 5,500 compounds, about 2,000 (36%) were called active. Inconclusive results (about 18%) are left out. Rule as the data show it: active = normalized growth mostly below about 0.91 (no sharp cut-off); inconclusive = no clear call, values can overlap the other calls; inactive = mostly above about 0.92. The list shows a part of the results.
Classes used: YES for active, NO for inactive

Compound: Oc1cccc2cccnc12
Assigned Label: YES
//
Compound: ClC1C(Cl)C(Cl)C(Cl)C(Cl)C1Cl (stereo unspecified)
Assigned Label: NO
//
Compound: COc1ccccc1OCC(O)COC(N)=O (stereo unspecified)
Assigned Label: NO
//
Compound: Cc1ccc(O)c(C(CCN(C(C)C)C(C)C)c2ccccc2)c1 (stereo unspecified)
Assigned Label: NO
//
Compound: CNC(=O)N(C)c1nnc(C(C)(C)C)s1
Assigned Label: NO
//
Compound: COC(=O)C(O)[C@H]1C(C)(C)[C@@H](OC(C)=O)[C@@H]2CC3=C4CC(=O)O[C@@H](c5ccoc5)[C@]4(C)CCC3[C@@]1(C)C2=O (stereo partly specified)
Assigned Label: NO

* * *

Experiment: chemical genetic growth profiling, strain panel (AID 1159580)
Details: S. cerevisiae deletion strains, growth OD, locus YJL164C, strain tpk1, hits give low values
Among all 5,500 compounds or so, about 2,000 (36%) were called active. Roughly 18% stayed inconclusive and do not appear here. Some of the results follow.
The reader will find reported normalized growth values listed item by item below.

Molecule: O=c1c(O)c(-c2ccc(O)cc2)oc2ccccc12
normalized growth: 0.564
//
Molecule: CCC1(C2=NCCN2)Cc2ccccc2O1 (stereo not given)
normalized growth: 0.995
//
Molecule: C=C(C)C1Cc2c(ccc3c(=O)c4c(oc23)COc2cc(OC)c(OC)cc2-4)O1 (stereo not given)
normalized growth: 1
//
Molecule: CN1CCC[C@H]1c1cccnc1
normalized growth: 1.02
//
Molecule: CC(C)c1cc2c(c(O)c1O)[C@@]1(C(=O)O)CCCC(C)(C)C1CC2 (stereo not given in full)
normalized growth: 0.908

* * *

Assay: chemical genetic growth profiling, strain panel (AID 1159580);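 also: tested at 20 µM; growth read once vehicle control cultures reached saturation at 30 °C; 1 = growth at the plate median or of vehicle wells; lower values mean less growth of the strain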
Conditions: S. cerevisiae deletion strains, growth OD, locus YIL073C, strain SPO22
Among all 5,500 compounds or so, about 2,000 (36%) were called active. Not shown: some 18% with an inconclusive outcome. No stated cut-off is given here; in the data, active means normalized growth mostly below about 0.91 (no sharp cut-off); inconclusive means no clear call, values can overlap the other calls; inactive means mostly above about 0.92. The list shows a part of the results.
Possible outcomes: active, inactive

Molecule: CNC(C)(C)Cc1ccccc1
Assigned Label: inactive
--
Molecule: COP(=O)(NC(C)=O)SC (stereo not drawn)
Assigned Label: inactive
--
Molecule: O=C1c2ccccc2C(=O)c2ccccc21
Assigned Label: inactive
--
Molecule: N[C@@H](C(=O)N[C@@H]1C(=O)N2C(C(=O)O)=C(Cl)CS[C@H]12)c1ccccc1
Assigned Label: inactive
--
Molecule: COC1=CC23CCCN2CCc2cc4c(cc2C3C1O)OCO4 (stereo not drawn)
Assigned Label: inactive
--
Molecule: O[C@H]1[C@H](O)[C@@H](O)C2OC[C@H]1O2
Assigned Label: inactive
--
Molecule: O=C1C=C(O)c2ccccc2C1=O
Assigned Label: inactive
--
Molecule: O=C(O)c1cccnc1C(=O)O
Assigned Label: inactive
--
Molecule: Oc1cccc2cccnc12
Assigned Label: active
--
Molecule: COc1ccccc1OCC(O)COC(N)=O (stereo not drawn)
Assigned Label: inactive
--
Molecule: NC(=NCCCCCCN=C(N)N=C(N)Nc1ccc(Cl)cc1)N=C(N)Nc1ccc(Cl)cc1
Assigned Label: active
--
Molecule: C[N+]1(C)CCCC(OC(=O)C(O)(c2ccccc2)c2ccccc2)C1 (stereo not drawn)
Assigned Label: inactive
--
Molecule: CC(C)N=C(N)N=C(N)Nc1ccc(Cl)cc1
Assigned Label: inactive

* * *

Assay: chemical genetic growth profiling, strain panel (AID 1159580);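 also: tested at 20 µM; growth read once vehicle control cultures reached saturation at 30 °C; 1 = growth at the plate median or of vehicle wells; lower values mean less growth of the strain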
Conditions: S. cerevisiae deletion strains, growth OD, locus YER016W, strain bim1, hits give low values
In all, about 5,500 compounds went through this assay and about 2,000 (36%) were called active. Inconclusive results (about 18%) are left out. This is one part of the list.
Metric Name: normalized growth

Compound: CN1CCN(C2=Nc3cc(Cl)ccc3Nc3ccccc32)CC1
Reported: 0.966
//
Compound: C[C@H]1C(=O)CCC2[C@]3(C)CC[C@@]4(C)C5CC(C)(C)CC[C@]5(C)CC[C@]4(C)C3CC[C@@]21C (stereo not given in full)
Reported: 0.994
//
Compound: Cc1cc(O)c2c(c1)C(=O)c1cccc(O)c1C2=O
Reported: 1
//
Compound: O=C1C=CC(=O)c2c(O)cccc21
Reported: 1.02
//
Compound: CCC1(C2=NCCN2)Cc2ccccc2O1 (stereo not given)
Reported: 1.01

* * *

Assay: chemical genetic growth profiling, strain panel (AID 1159580);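 also: tested at 20 µM; growth read once vehicle control cultures reached saturation at 30 °C; 1 = growth at the plate median or of vehicle wells; lower values mean less growth of the strain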
Settings: S. cerevisiae deletion strains, growth OD, locus YMR129W, hits give low values
In all, about 5,500 compounds went through this assay and about 2,000 (36%) were called active. Roughly 18% stayed inconclusive and do not appear here. The list shows a part of the results.
Listing of entries alongside the reported normalized growth.

Compound: CC1CC(OC(=O)c2ccccc2O)CC(C)(C)C1 (stereo unspecified)
normalized growth: 0.998 (inactive)

Compound: O=C(/C=C/c1ccccc1)c1ccc(O[C@@H]2O[C@H](CO)[C@@H](O)[C@H](O)[C@H]2O)cc1O
normalized growth: 0.91 (active)

Compound: O=C(/C=C/c1ccc(O)cc1)c1ccc(O)cc1O
normalized growth: 1.03 (inactive)

Compound: O=C(/C=C/c1ccc(O)cc1)c1ccccc1O
normalized growth: 0.656 (active)

Compound: O=C(/C=C/c1ccccc1)c1ccc(O)cc1O
normalized growth: 0.061 (active)

Compound: CC(C)[C@@H]1CC[C@@H](C)C[C@H]1OC(=O)c1ccccc1
normalized growth: 0.999 (inactive)
